Origin of the recorded values: PubChem BioAssay (NCI)

system: SN12C renal; test: NCI tumour cell line growth inhibition, 48 h
Each entry below carries its reported TGI.

{"compound": "CN1C(=O)C(=CN(C)c2ccccc2)C(=O)N(C)C1=O", "TGI": "> 100 µM"}
{"compound": "COc1cc2ccc(CC(N)=O)cc2cc1OC", "TGI": "> 100 µM"}
{"compound": "CC/C=C\\C[C@H](O)C/C=C1/C(=O)C=C[C@@H]1C/C=C\\CCCC(=O)NC", "TGI": "8.5 µM"}
{"compound": "Cc1ccc(NC(=O)/C(=N\\NC(N)=O)c2c(O)c3ccccc3[nH]c2=O)cc1", "TGI": "> 100 µM"}
{"compound": "O=C1CCC2(c3ccccc3)Nc3ccc(Cl)cc3N12 (stereo unspecified)", "TGI": "> 100 µM"}
{"compound": "C=CCN1C[C@@H](C)N([C@@H](c2ccc(C(=O)N(CC)CC)cc2)c2cccc(OC)c2)C[C@@H]1C", "TGI": "> 100 µM"}
{"compound": "CCCCc1c2c(nc3c1CC/C(=C\\c1ccc([N+](=O)[O-])cc1)C3=O)CCCC2", "TGI": "3.34 µM"}
{"compound": "CCN(CC)c1ccc(/C=C/C=C(/C#N)C(N)=S)cc1", "TGI": "75.2 µM"}
{"compound": "COc1cc2cc3c4c(cc(OC)c(OC)c4c2cc1OC)CCN3C(=O)CCC(=O)O", "TGI": "> 100 µM"}
{"compound": "O=S(=O)(O)c1ccccc1N=Nc1ccc(N=Nc2c(O)ccc3ccccc23)c(S(=O)(=O)O)c1", "TGI": "> 100 µM"}
{"compound": "CCOP(C)(=O)/C(Cc1ccc(OC)c(OC)c1)=N\\O (stereo unspecified)", "TGI": "> 100 µM"}
{"compound": "Cc1cc(NS(=O)(=O)c2ccc(NC(=O)COC(=O)c3cccc4c(=O)c5ccccc5[nH]c34)cc2)no1", "TGI": "> 100 µM"}
{"compound": "Cc1cc(C)c2c(=O)cc(-c3ccc4ccccc4c3)[nH]c2n1", "TGI": "> 100 µM"}
{"compound": "COc1ccc2[nH]c(O)c(/C=c3/ccc4c(c3)N=C(c3ccc(F)cc3)N=4)c2c1", "TGI": "> 100 µM"}
{"compound": "COc1cc(NC(C)CCCN)c2ncccc2c1Sc1ccc(Cl)cc1 (stereo unspecified)", "TGI": "3.06 µM"}
{"compound": "CCN(CC)CCC(=O)/C=C/c1ccc(C)cc1", "TGI": "24.8 µM"}
{"compound": "CCN1C(=O)N(CC)C2C1NN=c1s/c(=C\\c3cccc([N+](=O)[O-])c3)c(=O)n12 (stereo unspecified)", "TGI": "> 100 µM"}
{"compound": "C[C@@](O)(/C=C/[C@H]1CC=CC(=O)O1)[C@@H](C[C@@H](O)\\C=C/C=C\\C=C\\CO)OP(=O)(O)O", "TGI": "80.5 µM"}
{"compound": "CC(=O)OC1[C@@H](OC(C)=O)CN(OCc2ccccc2)C[C@H]1OC(C)=O (stereo partly specified)", "TGI": "> 100 µM"}
{"compound": "COCn1c(C)c(C)c2c(=O)oc(C)nc21", "TGI": "> 100 µM"}
{"compound": "COc1cc(C(=O)OCCn2[nH]c(-c3ccc(Cl)cc3)nc2=S)cc(OC)c1OC", "TGI": "> 100 µM"}
{"compound": "CC#CCCCC1(C)CCCNC1=S (stereo unspecified)", "TGI": "> 10 µM"}
{"compound": "C=CCn1c(-c2ccc(Cl)cc2Cl)csc1=Nc1c(C)n(C)n(-c2ccccc2)c1=O", "TGI": "27.5 µM"}
{"compound": "O=C1Nc2ccccc2/C1=C\\c1c(Cl)nc2n1CCS2", "TGI": "> 100 µM"}
{"compound": "CCCC#CCOC(=O)c1cc([N+](=O)[O-])cc([N+](=O)[O-])c1", "TGI": "> 100 µM"}
{"compound": "CCn1c(=O)c2c3cc(OC(C)=O)ccc3oc2c2ccc(OC(C)=O)cc21", "TGI": "> 100 µM"}
{"compound": "COc1ccc(/C(=N/O)c2cc(OC)c(OC)c(OC)c2)c(OC)c1N", "TGI": "> 100 µM"}
{"compound": "O=P1(Oc2ccccc2)NCc2ncccc2O1 (stereo unspecified)", "TGI": "> 100 µM"}
{"compound": "Cc1cc(C)c(C(=O)/C=C/c2ccccc2)c(C)c1", "TGI": "34.7 µM"}
{"compound": "Oc1ccccc1-c1nn2c(CCCCCCCCc3nnc4sc(-c5ccccc5O)nn34)nnc2s1", "TGI": "> 100 µM"}
{"compound": "COc1cc2c(cc1O)C(c1cc(O)c(O)c(OC)c1)C(O)(C(=O)O)C(CO)C2O (stereo unspecified)", "TGI": "32.6 µM"}
